Tested on: Saccharomyces cerevisiae
Assay: protein stability index of tFT-peptide fusion (C-terminal peptide) (PSI (0-1 scale)); higher = more stable (slower turnover)
Conditions: genetic background: wild type; temperature: 30 C
For each entry below, report its protein stability index value.
Just the number, please, no unit attached.

query: Given KDINLSEGNENE [URA8 C-terminal 12 aa] , respond with its protein stability index.
result: 0.666

query: Given DAEGQENAASSE [RIM1 C-terminal 12 aa] , respond with its protein stability index.
result: 0.67

query: Given RVFEFLEKQKRE [MRPL40 C-terminal 12 aa] , respond with its protein stability index.
result: 0.723

query: Given LLSGEPLAKKKE [HMLALPHA2 C-terminal 12 aa] , respond with its protein stability index.
result: 0.744

query: Given KHASELSSNSKF [CTA1 C-terminal 12 aa] , respond with its protein stability index.
result: 0.681

query: Given SAYMYTKRRFGF [MNR2 C-terminal 12 aa] , respond with its protein stability index.
result: 0.647

query: Given DNRPIYKRFFSS [HXT11 C-terminal 12 aa] , respond with its protein stability index.
result: 0.511

query: Given QQSESLPQQTTA [PIL1 C-terminal 12 aa] , respond with its protein stability index.
result: 0.737

query: Given QIDKYMDLFTEG [PDH1 C-terminal 12 aa] , respond with its protein stability index.
result: 0.735

query: Given VLVCFQTFILLQ [YDL032W C-terminal 12 aa] , respond with its protein stability index.
result: 0.162

query: Given SAITKNLLDDFV [RAV1 C-terminal 12 aa] , respond with its protein stability index.
result: 0.745

query: Given VKEYYKKSDVGR [ATG9 C-terminal 12 aa] , respond with its protein stability index.
result: 0.66

These data points were gathered from the supplement of paper PMC10724198.
